Tested on: A549 NSCLC
assay_method_text: NCI tumour cell line growth inhibition, 48 h

{"compound": "CC1=NN(c2ccccc2)C(=O)/C1=C\\c1ccc([N+](=O)[O-])cc1", "study_system": "A549 NSCLC", "TGI": "> 100 µM"}
{"compound": "COC(=O)C(C(=O)C(=O)Nc1ccc([N+](=O)[O-])cc1)c1nc2ccc([N+](=O)[O-])cc2[nH]c1=O (stereo not given)", "study_system": "A549 NSCLC", "TGI": "> 100 µM"}
{"compound": "CC(C)C[C@H](NC(=O)CCn1ccc2ccccc2c1=O)B(O)O", "study_system": "A549 NSCLC", "TGI": "> 100 µM"}
{"compound": "CCCc1[nH]c2ccccc2c1-c1c(CCC)[nH]c2ccccc12", "study_system": "A549 NSCLC", "TGI": "> 75.4 µM"}
{"compound": "Nc1n[nH]c2ccc([C@@H]3Nc4cc5c(cc4[C@H]4C6CCC(C6)[C@@H]34)C(=O)NC5)cc12 (stereo not given in full)", "study_system": "A549 NSCLC", "TGI": "> 100 µM"}

###

System: BT-549 breast
assay_method_text: NCI tumour cell line growth inhibition, 48 h
readout_type: TGI

{"compound": "CSc1ccc(C2=NN(C(C)=O)C(c3ccc(-c4ccc(Cl)cc4)o3)C2)cc1 (stereo unspecified)", "result": "> 100 µM"}
{"compound": "Cc1cc2c(cc1C)[n+](=O)c(C(=O)c1ccccc1)c(C(F)(F)F)n2[O-]", "result": "23.9 µM"}
{"compound": "Cc1cnc2c(c1C)C(=O)c1ccccc1C2=O", "result": "> 100 µM"}
{"compound": "CCC1C(c2ccccc2O)c2cc3c(cc2OC1N1CCOCC1)OCO3 (stereo unspecified)", "result": "29.3 µM"}
{"compound": "CCOC(=O)C1CCCCN1C(=O)Cc1c[nH]c2ccccc12 (stereo unspecified)", "result": "> 100 µM"}
{"compound": "COc1cccc(C2c3cc4c(cc3OC3COC(=O)C32)OCO4)c1OC (stereo unspecified)", "result": "> 100 µM"}
{"compound": "Clc1ccc(C2ON=C(c3ccccc3)N2C23CC4CC(CC(C4)C2)C3)cc1 (stereo unspecified)", "result": "> 10 µM"}
{"compound": "Cc1ccc(C2C3Cc4ccccc4C3=NN2c2ccc(S(=O)(=O)/N=c3\\scc(-c4ccccc4)n3-c3ccccc3)cc2)cc1 (stereo unspecified)", "result": "43.3 µM"}
{"compound": "CCN(CCN(CC)C(=O)Nc1ccccc1)C(=O)Nc1ccccc1", "result": "> 100 µM"}
{"compound": "COc1cc(CNc2nc3ccccc3nc2C(=O)O)cc(OC)c1OC", "result": "> 100 µM"}
{"compound": "FC(F)(F)c1cccc(-c2nn3ncccc3c2-c2ccnc(Nc3ccc4c(c3)OCCO4)n2)c1", "result": "> 25 µM"}
{"compound": "COc1ccc2c(c1)C(=O)c1c-2c(OCCN(C)C)nc2ccccc12", "result": "26 µM"}
{"compound": "CC1(C)CC(=O)c2c(nc3c4c([nH]c(-c5ccc(Br)cc5)c24)CC(C)(C)C3)C1", "result": "> 100 µM"}
{"compound": "C=CCc1cc(Nc2c3ccc(Cl)cc3nc3ccc(OC)cc23)cc(CN(CC)CC)c1O", "result": "8.1 µM"}
{"compound": "COc1ccc(C2=NOC(N)(c3ccc(OC)cc3)C2)cc1 (stereo unspecified)", "result": "> 100 µM"}
{"compound": "O=Nc1c(-c2c(O)[nH]c3ncccc23)[nH]c2ccccc12", "result": "> 100 µM"}
{"compound": "COC(=O)C(Cc1c[nH]c2ccccc12)N=C1Nc2ccncc2S(=O)(=O)N1c1cccc(OC(C)C)c1 (stereo unspecified)", "result": "> 100 µM"}
{"compound": "CN(C)CCNC(=O)c1cccc2c(NC(CCC(N)=O)C(=O)O)c3ccccc3nc12 (stereo unspecified)", "result": "33.4 µM"}
{"compound": "NNc1nnc(-c2nnc(NN)o2)o1", "result": "> 10 µM"}
{"compound": "c1ccc(CC2COC(c3cccs3)=N2)cc1 (stereo unspecified)", "result": "> 100 µM"}
{"compound": "COc1ccc(Nc2ccc([N+](=O)[O-])cc2[N+](=O)[O-])cc1CN(CCCl)CCCl", "result": "3.96 µM"}

###

System: HT29 colon
assay_method_text: NCI tumour cell line growth inhibition, 48 h

{"compound": "N#CC1(C#N)C(c2ccccc2)C=CC12OCCCO2 (stereo not drawn)", "TGI": "> 100 µM"}
{"compound": "COc1ccc(Nc2ccc([N+](=O)[O-])cc2[N+](=O)[O-])cc1CN(CCCl)CCCl", "TGI": "9.59 µM"}
{"compound": "COC(=O)c1cc(-c2ccc(OC)c(OC)c2)[nH]c1N/N=C/c1c(Cl)cccc1Cl", "TGI": "2.3 µM"}
{"compound": "O=C(O)c1ccccc1NC(=S)c1ccccc1", "TGI": "> 100 µM"}
{"compound": "Cc1cc(C)c(C2CNCc3cc4c(cc32)CNCC4c2c(C)cc(C)cc2C)c(C)c1 (stereo not drawn)", "TGI": "8.35 µg/mL"}
{"compound": "N[C@H](COCc1ccccc1)c1ccccc1", "TGI": "> 93.9 µM"}
{"compound": "COc1ccc2c(-c3ccnc(Nc4cccc(OC(F)(F)F)c4)n3)cnn2n1", "TGI": "3.06 µM"}
{"compound": "Nc1ncnc2c1ncn2[C@@H]1O[C@H](COC(c2ccccc2)(c2ccccc2)c2ccccc2)[C@@H](OC(=S)Oc2ccccc2)[C@@H]1F", "TGI": "22.7 µM"}
{"compound": "CC(C)(CCC(C)(C)N1OC1c1ccccc1)N1OC1c1ccccc1 (stereo not drawn)", "TGI": "> 100 µM"}
{"compound": "Nc1n[nH]c2ccc([C@@H]3Nc4cc5c(cc4[C@H]4C6CCC(C6)[C@@H]34)C(=O)NC5)cc12 (stereo partly drawn)", "TGI": "> 100 µM"}
{"compound": "c1cc(N2CCN(c3ccc(C4=NCCCN4)cc3)CC2)ccc1C1=NCCCN1", "TGI": "> 100 µM"}
{"compound": "CCCCCCCCCCCC[N+](CCCCCCCCCCCC)=C1SCCS1", "TGI": "12.8 µM"}
{"compound": "N#C/C(C(=S)NCc1ccccc1)=C(/N)N1CCCC1", "TGI": "> 100 µM"}
{"compound": "O=C1N[C@@H]2C(=C[C@H](O)[C@@H](O)[C@H]2O)c2cc3c(c(O)c21)OCO3", "TGI": "0.172 µM"}
{"compound": "C=CCC1(C)CCCN(Cc2ccccc2)C1=O (stereo not drawn)", "TGI": "> 10 µM"}
{"compound": "CCCC(S(=O)(=O)c1ccccc1)S(=O)(=O)c1ccccc1", "TGI": "> 100 µM"}
{"compound": "CC(=O)/C(=C\\c1ccccc1O)C(=O)Nc1ccccc1C", "TGI": "37.2 µM"}
{"compound": "CN1CCc2nc3sc(C(N)=O)c(N)c3c(-c3cccs3)c2C1", "TGI": "70.9 µM"}
{"compound": "Clc1ccc2oc(CCc3ccccc3)nc2c1", "TGI": "> 100 µM"}
{"compound": "O=Nc1c(-c2c(O)[nH]c3ncccc23)[nH]c2ccccc12", "TGI": "> 100 µM"}
{"compound": "O=C1Cc2c([nH]c3ccc(C(=O)O)cc23)-c2ccccc2N1", "TGI": "> 100 µM"}
{"compound": "C/C(=N\\O)c1cccc(Nc2cc(-n3ccnc3)c3ccccc3n2)c1", "TGI": "49.4 µM"}
{"compound": "Cn1ccnc1Oc1ccc(Cl)cc1", "TGI": "26.6 µM"}
{"compound": "COc1ccc(NC(=O)C(=O)/C=C(\\O)c2ccccc2)cc1", "TGI": "> 10 µM"}
{"compound": "COc1cc(/C=C/c2ccc3c(Br)cc(Br)c(O)c3n2)ccc1O", "TGI": "12.8 µM"}
{"compound": "O=C1C=C(O)C(=Cc2c(O)cc(O)cc2O)C(O)=C1", "TGI": "> 100 µM"}
{"compound": "O=C(O)c1ccccc1N=Nc1c(O)c(S(=O)(=O)O)cc2cc(S(=O)(=O)O)ccc12", "TGI": "> 100 µM"}
{"compound": "O=c1[nH]nc(-c2ccccc2)n1O", "TGI": "> 100 µM"}

###

Recorded measurements of TGI, one per entry
System: COLO 205 colon
assay_method_text: NCI tumour cell line growth inhibition, 48 h

{"molecule": "C[C@@H]1Cc2cc(O)ccc2[C@H]2CC[C@]3(C)/C(=C/COCCN(C)C)CC[C@H]3[C@H]12 (tested in a mixture with another compound)", "limit_sign": "=", "TGI, µM": 1.03}
{"molecule": "COc1cc(C(=O)c2cc(C)c3[nH]c4ccc(O)cc4c3c2C)cc(OC)c1OC", "limit_sign": "=", "TGI, µM": 0.11}
{"molecule": "CC[C@@]1(O)C(=O)OCc2c1cc1n(c2=O)Cc2c-1nc1ccccc1c2/C=N\\NC(=O)C(N)CCSC (some centres undefined)", "limit_sign": "=", "TGI, µM": 18.5}
{"molecule": "N#C/C(C(=S)NCc1ccccc1)=C(/N)N1CCCC1", "limit_sign": ">", "TGI, µM": 100}
{"molecule": "CC(=O)OCC1OC(OCCCOP(=S)(OCCC#N)OCC2OC(n3ccc(N)nc3=O)C(OC(=O)c3ccccc3)C2OC(=O)c2ccccc2)C(OC(C)=O)C(OC(C)=O)C1OC(C)=O (centres undefined)", "limit_sign": ">", "TGI, µM": 100}
{"molecule": "CCCCCCCCCCCC[N+](CCCCCCCCCCCC)=C1SCCS1", "limit_sign": "=", "TGI, µM": 20.4}
{"molecule": "CCOc1ccc(NC(=O)CCc2nnc(SC)o2)cc1", "limit_sign": ">", "TGI, µM": 100}
{"molecule": "O=C(O)c1ccccc1N=Nc1c(O)c(S(=O)(=O)O)cc2cc(S(=O)(=O)O)ccc12", "limit_sign": ">", "TGI, µM": 100}
{"molecule": "CNNC(=NS(=O)(=O)c1cc(C#N)c(NNC)cc1S)NNC", "limit_sign": ">", "TGI, µM": 10}
{"molecule": "Cc1cc(=O)c2c(O)cc3c(c2o1)CC=C(COC1OC(COC2OC(CO)C(O)C(O)C2O)C(O)C(O)C1O)CO3 (centres undefined)", "limit_sign": ">", "TGI, µM": 100}
{"molecule": "COc1ccc(Nc2ccc([N+](=O)[O-])cc2[N+](=O)[O-])cc1CN(CCCl)CCCl", "limit_sign": "=", "TGI, µM": 7.84}
{"molecule": "O=C(O)c1ccccc1NC(=S)c1ccccc1", "limit_sign": ">", "TGI, µM": 100}
{"molecule": "COC(=O)C(C(=O)C(=O)Nc1ccc([N+](=O)[O-])cc1)c1nc2ccc([N+](=O)[O-])cc2[nH]c1=O (centres undefined)", "limit_sign": ">", "TGI, µM": 100}
{"molecule": "O=C(/C=C/c1ccc(Cl)c(Cl)c1)c1cccc2ccccc12", "limit_sign": "=", "TGI, µM": 26.2}
{"molecule": "COc1cc(Nc2nc3cc(C(F)(F)F)ccc3n3cccc23)cc(OC)c1OC", "limit_sign": ">", "TGI, µM": 100}
{"molecule": "COc1cccc(C2c3cc4c(cc3OC3COC(=O)C32)OCO4)c1OC (centres undefined)", "limit_sign": ">", "TGI, µM": 100}
{"molecule": "Cc1cnc2c(c1C)C(=O)c1ccccc1C2=O", "limit_sign": ">", "TGI, µM": 100}
{"molecule": "COc1cc2c3c([nH]c2c(OC)c1OC)CCN(Cc1ccccc1)C3", "limit_sign": "=", "TGI, µM": 32}
{"molecule": "CC1C=CC(OC(=O)C(C)(O)CCC(O)(C(=O)OC2CC(O)C(C(C)C)CC2(C)O)C(C)C)(C(C)C)CC1 (centres undefined)", "limit_sign": "=", "TGI, µM": 1.61}
